System: NFAT
assayProtocol: siRNA transfection array, NFAT EGFP reporter, HepG2 cells
Assay type: cell-based, human
conditionParameters: NFAT reporter, 48 h culture
Method: Functional reporters for transcriptional factors and fibronectin described in Table 2 were used to synthesize siRNAs for the transcriptional factors including SRE, TRE, E2F, p53, Rb, Actin, NFAT, NFkB, STAT3, RARE, PMA, ISRA, HSE, Myc, AP1, GAS, ERE, GRE and CRE. siRNA for EGFP was used as a control. Each siRNA was evaluated as to whether or not it knocks out a target transcription factor. Scrambled RNAs were used as negative controls, and their ratios were evaluated. […]
quantityMeasured: Relative intensity ratio of EGFP fluorescence against Scramble II Duplex, NFAT (%)

[
  {
    "substance": "NFkB siRNA: siRNA SEQ ID NO: 64 (Dharmacon), targets human p50-NF-kappa B homolog S76638 (GCCUAAGCAGAGAGGCUUC; chemistry not given here)",
    "dataValue": 94.9
  },
  {
    "substance": "NFAT3 siRNA: siRNA SEQ ID NO: 63 (Dharmacon), targets human NF-AT3 L41066 (GCCACUGACCCUACAGAUG; chemistry not given here)",
    "dataValue": 100.0
  },
  {
    "substance": "STAT1b siRNA: siRNA SEQ ID NO: 72 (Dharmacon), targets human transcription factor ISGF-3 M97936 (GGAAGACCCAAUCCAGAUG; chemistry not given here)",
    "dataValue": 187.8
  },
  {
    "substance": "RARB2 siRNA: siRNA SEQ ID NO: 67 (Dharmacon), targets human RARB transcript variant 2 NM_016152 (GACGGCCUUACCCUAAAUC; chemistry not given here)",
    "dataValue": 99.0
  },
  {
    "substance": "STAT3 siRNA: siRNA SEQ ID NO: 74 (Dharmacon), targets human DNA-binding protein APRF L29277 (GAAACUGGAGGAGUUGCAC; chemistry not given here)",
    "dataValue": 118.2
  }
]
